Recorded pIC50 for the following compounds
- System: NF-κB pathway (SEAP) in THP1-Dual cells
- procedure summary: THP-1 Dual cell SEAP assay (L18-MDP stimulated)
- Assay type: cell-based
- condition details: Homo sapiens, THP1-Dual, read-out: NFkB THP1 IC50
pIC50: −log10 of the molar value.

Example entries begin here.
In [3]: df
Out[3]:
                                   compound                            system_tested  result
0  CCCS(=O)(=O)Nc1nc(-c2cnc3cc(OC)c(S(=O)(=O)C(C)(C)C)cn23)ccc1OC [compound 314]  NF-κB pathway (SEAP) in THP1-Dual cells  < 6.00
1  CC(C)(C)S(=O)(=O)c1ccn2ncc(-c3ccc(F)nc3N)c2c1 [Example 299]  NF-κB pathway (SEAP) in THP1-Dual cells  < 6.00
2  CC(C)(C)S(=O)(=O)c1ccc2ncc(-c3cc(F)nc(F)c3)n2c1 [Example 1]  NF-κB pathway (SEAP) in THP1-Dual cells  < 6.00
3  COc1cc2ncc(-c3cc(N)cc(S(C)(=O)=O)c3)n2cc1S(=O)(=O)C(C)(C)C [Example 37]  NF-κB pathway (SEAP) in THP1-Dual cells  < 6.00

Pending compound:
Problem: # query: pIC50 of entry COc1cc2ncc(-c3cnc(N)s3)n2cc1S(=O)(=O)C(C)(C)C [Example 166]
Result: < 6.00
